The measurements presented in this section are drawn from patent US9365563B2.

# method summary: Aqueous solubility
# Type: physicochemical
# measurement setup: pH 6.8
metric: aqueous solubility at pH 6.8 (μM)

[I] N#CCc1cnc(C2=CCN(C(=O)Nc3ccc(C(F)(F)F)cc3)CC2)c(Cl)c1
[II] CCOC(=O)c1cnc(C2=CCN(C(=O)Nc3ccc(C(F)(F)F)cc3)CC2)c(Cl)c1
[III] O=C(Nc1ccc(C(F)(F)F)c(F)c1)N1CCC(F)(c2ncc([C@H](O)CO)cc2F)CC1
[IV] CC(O)c1cnc(C2=CCN(C(=O)Nc3ccc(C(F)(F)F)cc3)CC2)c(Cl)c1 (centres unmarked)
Lab note: aqueous solubility at pH 6.8 ranking, ascending, for the listed molecules. Hello, could you send the labels back in the order asked? Thank you.
II, I, III, IV

====

# method summary: Aqueous solubility
# Format: physicochemical
# measurement setup: pH 6.8
metric: aqueous solubility at pH 6.8 (μM)

1. O=C(Nc1ccc(S(=O)(=O)C(F)(F)F)cc1)N1CCC(F)(c2ncccc2Cl)CC1 :: 0.4
2. O=C(Nc1ccc(C(F)(F)F)c(Cl)c1)N1CC=C(c2ncccc2F)CC1 :: 0.6

[P] O=C(Nc1ccc(OC(F)(F)F)cc1)N1CCC(F)(c2ncc([C@H](O)CO)cc2Cl)CC1
[Q] O=C(Nc1ccc(C(F)(F)F)c(F)c1)N1CCC(F)(c2ncccc2F)CC1
[R] O=C(Nc1ccc(C(F)(F)F)c(F)c1)N1CCC(F)(c2ncccc2Cl)CC1
[S] O=C(Nc1ccc(OC(F)(F)F)cc1)N1CCC(F)(c2ncccc2Cl)CC1
[T] O=C(Nc1ccc(C(F)(F)F)c(Cl)c1)N1CC=C(c2ncc([C@H](O)CO)cc2F)CC1
Put the molecules in ascending order of aqueous solubility at pH 6.8. Form field (ranking): labels in requested order.
S, R, Q, P, T
(S: 0.4 μM, R: 1.0 μM, Q: 1.9 μM, P: 15.7 μM, T: 26.4 μM)

====

# method summary: Aqueous solubility
# Type: physicochemical
# measurement setup: pH 1.2
metric: aqueous solubility at pH 1.2 (μM)

1) CCOC(=O)c1cnc(C2=CCN(C(=O)Nc3ccc(C(F)(F)F)cc3)CC2)c(Cl)c1 :: 1.0

[P] N#CCc1cnc(C2=CCN(C(=O)Nc3ccc(C(F)(F)F)cc3)CC2)c(Cl)c1
[Q] O=C(Nc1ccc(C(F)(F)F)c(F)c1)N1CCC(F)(c2ncccc2F)CC1
Of P and Q , which carries the smaller reported aqueous solubility at pH 1.2 figure? Select an item and report its label.
Q
(Q: 10.3 μM, P: 27.2 μM)

====

# method summary: Bioavailability following oral administration
# Assay type: in vivo
# measurement setup: in vivo, read-out: bioavailable following oral administration
metric: bioavailability (%)
Respond numerically; units are % and should not be typed.

Request the reported bioavailability associated with O=C(Nc1ccc(C(F)(F)F)cn1)N1CCC(F)(c2ncc([C@H](O)CO)cc2Cl)CC1 [Compound G1]
70.7

====

# measured target: human TRPV1 (Homo sapiens (Human))
# Sequence (Q8NER1 whole entry): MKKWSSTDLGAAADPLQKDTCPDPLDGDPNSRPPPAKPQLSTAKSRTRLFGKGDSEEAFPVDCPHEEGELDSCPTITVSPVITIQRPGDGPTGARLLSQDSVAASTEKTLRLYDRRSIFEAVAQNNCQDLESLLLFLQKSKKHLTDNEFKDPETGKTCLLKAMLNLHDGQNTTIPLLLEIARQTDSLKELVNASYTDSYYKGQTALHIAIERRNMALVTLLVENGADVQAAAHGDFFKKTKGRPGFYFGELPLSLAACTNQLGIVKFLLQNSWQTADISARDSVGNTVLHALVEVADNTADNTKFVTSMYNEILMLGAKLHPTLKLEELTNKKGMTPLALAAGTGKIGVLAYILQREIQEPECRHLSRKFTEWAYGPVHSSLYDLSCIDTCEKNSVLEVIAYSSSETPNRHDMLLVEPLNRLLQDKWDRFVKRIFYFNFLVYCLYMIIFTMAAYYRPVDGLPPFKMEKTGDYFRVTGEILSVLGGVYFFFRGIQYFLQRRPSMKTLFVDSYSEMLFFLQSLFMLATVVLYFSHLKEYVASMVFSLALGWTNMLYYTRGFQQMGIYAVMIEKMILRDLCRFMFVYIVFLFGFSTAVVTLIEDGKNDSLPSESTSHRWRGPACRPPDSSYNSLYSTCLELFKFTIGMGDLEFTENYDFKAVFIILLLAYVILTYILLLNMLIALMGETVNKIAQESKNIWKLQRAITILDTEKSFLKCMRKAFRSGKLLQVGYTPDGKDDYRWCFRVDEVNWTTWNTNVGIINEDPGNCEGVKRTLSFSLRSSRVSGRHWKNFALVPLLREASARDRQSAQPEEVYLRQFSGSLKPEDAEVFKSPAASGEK
# method summary: Capsaicin-based assay, Protocol 2 (hCAP-CHO)
# Format: cell-based
# measurement setup: TRPV1/CHO cells, 100 nM capsaicin; mean ± SEM; read-out: TRPV1 IC50 Potency Human Capsaicin CHO (hCAP-CHO)
Recorded measurements of IC50, one per entry

Worked examples, 2 molecules total:
1. O=C1C=C(c2ncc([C@H](O)CO)cc2Cl)CCN1C(=O)Nc1ccc(C(F)(F)F)cn1 :: > 25 µM
2. O=C(O)c1cnc(C2=CCN(C(=O)Nc3ccc(C(F)(F)F)cc3)CC2)c(Cl)c1 :: > 25 µM

// lookup IC50 for CC(C)S(=O)(=O)c1ccc(NC(=O)N2CC=C(c3ncc(CO)cc3Cl)CC2)cc1
> 10 µM
